type: in vivo; conditions: male, human, plasma, oral, AUC, male patients, n = 9; up to 3 h; median [interquartile range]
Measurement Type: AUC (µM·h)
Give the value, in units of µM·h, as a plain number.

-- ask AUC lookup needed for N[C@@H](Cc1ccc(O)c(O)c1)C(=O)O [levodopa] , thanks.
-- reply 6.95

---

assay type: in vivo; conditions: human, plasma, oral, Tmax, low levodopa Cmax group (< 9 μmol/L), n = 11; median [interquartile range]
Measurement Type: Tmax
Kindly format the answer as number then unit.

-- ask Tmax lookup needed for N[C@@H](Cc1ccc(O)c(O)c1)C(=O)O , thanks.
-- reply 45 min

---

format: in vivo; conditions: female, human, plasma, oral, Cmax, female patients, n = 12; median [interquartile range]
Measurement Type: Cmax

-- ask Cmax lookup needed for N[C@@H](Cc1ccc(O)c(O)c1)C(=O)O , thanks.
-- reply 10.4 µM
